- Test system: BT-474
- ASSAY_PROCEDURE: In vitro cell proliferation inhibition, WST assay
- Type: cell-based, human
- EXPERIMENTAL_PARAMETERS: Homo sapiens, BT-474, 72 h, BT-474 cells, cultured for 3 days, read-out: BT-474 (nM) proliferation inhibitory activity (IC50 value)
Below: a set of entries, each annotated with reported IC50.
Record the value in nM, omitting the unit from your answer.

Answered cases to consult:
MOLECULE	DISPLAY_UNIT	VALUE_OBSERVED
CC#C/C(=N\OCCNC)c1ccc2ncnc(Nc3ccc4c(cnn4Cc4cccc(F)c4)c3)c2c1 [VIII-183]	nM	10
CC#C/C(=N\OC[C@@H]1COCCN1)c1ccc2ncnc(Nc3ccc(OCc4ccccn4)c(Cl)c3)c2c1 [VIII-169]	nM	35
CC#C/C(=N\OC[C@@H]1CCCN1CC(=O)O)c1ccc2ncnc(Nc3ccc(OCc4cccc(F)c4)c(Cl)c3)c2c1 [VIII-89]	nM	25
CC#C/C(=N\OC[C@@H]1CNCC(=O)N1)c1ccc2ncnc(Nc3ccc(OCc4ccccn4)c(Cl)c3)c2c1 [VIII-179]	nM	48
CC#C/C(=N\OCCN1CCN(C)CC1)c1ccc2ncnc(Nc3ccc(OCc4ccccn4)c(Cl)c3)c2c1 [VIII-164]	nM	31
CC#C/C(=N\OC[C@@H]1COCCN1)c1ccc2ncnc(Nc3ccc4c(cnn4Cc4cccc(F)c4)c3)c2c1 [VIII-197]	nM	14
CC#C/C(=N\OC[C@H]1COCCN1)c1ccc2ncnc(Nc3ccc(OCc4ccccn4)c(Cl)c3)c2c1 [VIII-167]	nM	21
CC#C/C(=N\OCCN1CCC(NS(C)(=O)=O)CC1)c1ccc2ncnc(Nc3ccc(OCc4cccc(F)c4)c(Cl)c3)c2c1 [VIII-100]	nM	16

I'd like to know its IC50. The molecule in question is CC#C/C(=N\OCCN1CCS(=O)(=O)CC1)c1ccc2ncnc(Nc3ccc(OCc4ccccn4)c(Cl)c3)c2c1 [VIII-162]
42

Data provenance is patent US8202879B2.
